Cited source for all entries: patent EP2459551B1

- system: human FSH receptor (Homo sapiens);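 further: CHO cells stably expressing human FSH receptor with CRE-driven firefly luciferase, luminescence read as counts per second after 4 h compound exposure in 1% DMSO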
- Sequence (P23945 18-695): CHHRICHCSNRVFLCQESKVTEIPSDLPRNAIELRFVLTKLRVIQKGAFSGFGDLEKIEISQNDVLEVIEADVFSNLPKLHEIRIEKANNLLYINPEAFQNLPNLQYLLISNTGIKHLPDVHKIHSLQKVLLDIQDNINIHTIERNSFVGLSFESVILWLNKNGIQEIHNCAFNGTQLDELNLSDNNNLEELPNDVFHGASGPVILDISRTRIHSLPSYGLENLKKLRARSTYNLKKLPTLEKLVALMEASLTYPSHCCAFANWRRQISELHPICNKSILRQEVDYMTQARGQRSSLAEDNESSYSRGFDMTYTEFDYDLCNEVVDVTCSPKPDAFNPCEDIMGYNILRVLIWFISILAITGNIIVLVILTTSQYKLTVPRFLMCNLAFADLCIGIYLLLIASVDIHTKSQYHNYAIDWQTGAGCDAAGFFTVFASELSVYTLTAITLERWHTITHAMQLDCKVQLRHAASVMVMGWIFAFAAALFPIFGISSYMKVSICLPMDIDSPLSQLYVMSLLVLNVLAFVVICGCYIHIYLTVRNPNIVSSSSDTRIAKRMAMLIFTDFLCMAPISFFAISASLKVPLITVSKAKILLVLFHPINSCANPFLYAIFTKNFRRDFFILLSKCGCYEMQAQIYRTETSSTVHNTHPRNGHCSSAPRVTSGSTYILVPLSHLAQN
EC50: recorded values
readout_name: EC50

[[record]]
compound = "COc1cc2c(cc1OC)-c1c(c(C(=O)N(C)C(C)(C)C)nn1-c1ccc(F)cc1)CC2 [Example 1e]"
endpoint_result = "1 to 10 µM"

[[record]]
compound = "CCc1ccc(-n2nc(C(=O)N(C)C(C)(C)C)c3c2-c2cc(OC(C)C)c(OC)cc2CC3)cc1 [Example 13cb]"
endpoint_result = "1 to 10 µM"

[[record]]
compound = "COc1cc2c(cc1OC(C)C)-c1c(c(C(=O)N(C)C(C)(C)C)nn1-c1ccccc1F)CC2 [Example 10cb]"
endpoint_result = "0.1 to 1 µM"

[[record]]
compound = "COc1cc2c(cc1NC(=O)CN1CCN(C)CC1)-c1c(c(C(=O)N(C)C(C)(C)C)nn1-c1cccc(C)c1)CC2 [Example 12ja]"
endpoint_result = "1 to 10 µM"

[[record]]
compound = "CCc1cccc(-n2nc(C(=O)N(C)C(C)(C)C)c3c2-c2cc(OC(C)C)c(OC)cc2CC3)c1 [Example 7cd]"
endpoint_result = "0.1 to 1 µM"

[[record]]
compound = "COc1ccc(-n2nc(C(=O)N(C)C(C)(C)C)c3c2-c2cc(OC(C)C)c(OC)cc2CC3)cc1 [Example 13cc]"
endpoint_result = "1 to 10 µM"

[[record]]
compound = "COc1cc2c(cc1OC(C)C)-c1c(c(C(=O)N(C)C(C)(C)C)nn1-c1nc3ccccc3s1)CC2 [Example 4d]"
endpoint_result = "1 to 10 µM"

